Reported relative viability values for a set of compounds
- Tested on: NCI-H1793
- TEST SUMMARY: relative viability (nuclei count vs DMSO), 5 days (fraction); higher = more cells survive
- EXPERIMENTAL CONDITIONS: first compound 8 µM
Please give only the number in your answer, with no unit.

In the examples that follow, each entry is paired with its recorded relative viability.
compound="C=C1C(=O)O[C@@H](CCCCCCCC)[C@@H]1C(=O)O [C-75] + NC(=O)Nc1cc(-c2cccc(F)c2)sc1C(=O)N[C@H]1CCCNC1 [AZD7762] (partner 0.2 µM)" reported_measurement=0.854
compound="C=C1C(=O)O[C@@H](CCCCCCCC)[C@@H]1C(=O)O [C-75] + CC(=O)Nc1cccc(-n2c(=O)n(C3CC3)c(=O)c3c(Nc4ccc(I)cc4F)n(C)c(=O)c(C)c32)c1 [Trametinib] (partner 0.02 µM)" reported_measurement=0.409
compound="C=C1C(=O)O[C@@H](CCCCCCCC)[C@@H]1C(=O)O [C-75] + Cc1nc(NC(=O)N2CCC[C@H]2C(N)=O)sc1-c1ccnc(C(C)(C)C(F)(F)F)c1 [Alpelisib] (partner 2 µM)" reported_measurement=0.816
compound="C=C1C(=O)O[C@@H](CCCCCCCC)[C@@H]1C(=O)O [C-75] + CS(=O)(=O)N1CCN(Cc2cc3nc(-c4cccc5[nH]ncc45)nc(N4CCOCC4)c3s2)CC1 [Pictilisib] (partner 1 µM)" reported_measurement=0.372
compound="C=C1C(=O)O[C@@H](CCCCCCCC)[C@@H]1C(=O)O [C-75] + O=C(CCCCCCC(=O)Nc1ccccc1)NO [Vorinostat] (partner 1 µM)" reported_measurement=0.751

Could you now look at the following compound, please?
Return relative viability (reported value) for this compound: C=C1C(=O)O[C@@H](CCCCCCCC)[C@@H]1C(=O)O [C-75] + CS(=O)(=O)CCNCc1ccc(-c2ccc3ncnc(Nc4ccc(OCc5cccc(F)c5)c(Cl)c4)c3c2)o1 [Lapatinib] (partner 2 µM)
0.713

---

Listed here: items and their measured relative viability.
- Test system: UMC-11
- TEST SUMMARY: relative viability (nuclei count vs DMSO), 5 days (fraction); higher = more cells survive
- EXPERIMENTAL CONDITIONS: first compound 0.005 µM

// known answers, use as guide
molecule="CC1(C)CCC(c2ccc(Cl)cc2)=C(CN2CCN(c3ccc(C(=O)NS(=O)(=O)c4ccc(N[C@H](CCN5CCOCC5)CSc5ccccc5)c(S(=O)(=O)C(F)(F)F)c4)cc3)CC2)C1 [Navitoclax] + Cc1nc(Nc2ncc(C(=O)Nc3c(C)cccc3Cl)s2)cc(N2CCN(CCO)CC2)n1 [Dasatinib] (partner 0.075 µM)" target_desc=UMC-11 reported_metric="relative viability" reported_measurement=0.451
molecule="CC1(C)CCC(c2ccc(Cl)cc2)=C(CN2CCN(c3ccc(C(=O)NS(=O)(=O)c4ccc(N[C@H](CCN5CCOCC5)CSc5ccccc5)c(S(=O)(=O)C(F)(F)F)c4)cc3)CC2)C1 [Navitoclax] + Nc1ncn([C@H]2C[C@H](O)[C@@H](CO)O2)c(=O)n1 [Decitabine] (partner 2 µM)" target_desc=UMC-11 reported_metric="relative viability" reported_measurement=0.707
molecule="CC1(C)CCC(c2ccc(Cl)cc2)=C(CN2CCN(c3ccc(C(=O)NS(=O)(=O)c4ccc(N[C@H](CCN5CCOCC5)CSc5ccccc5)c(S(=O)(=O)C(F)(F)F)c4)cc3)CC2)C1 [Navitoclax] + CC(=O)c1c(C)c2cnc(Nc3ccc(N4CCNCC4)cn3)nc2n(C2CCCC2)c1=O [Palbociclib] (partner 0.5 µM)" target_desc=UMC-11 reported_metric="relative viability" reported_measurement=0.388

In one line, give reported relative viability of the entry CC1(C)CCC(c2ccc(Cl)cc2)=C(CN2CCN(c3ccc(C(=O)NS(=O)(=O)c4ccc(N[C@H](CCN5CCOCC5)CSc5ccccc5)c(S(=O)(=O)C(F)(F)F)c4)cc3)CC2)C1 [Navitoclax] + O=C(c1cc(Cc2n[nH]c(=O)c3ccccc23)ccc1F)N1CCN(C(=O)C2CC2)CC1 [Olaparib] (partner 8 µM) .
0.89

Fill in reported relative viability for this entry: CC1(C)CCC(c2ccc(Cl)cc2)=C(CN2CCN(c3ccc(C(=O)NS(=O)(=O)c4ccc(N[C@H](CCN5CCOCC5)CSc5ccccc5)c(S(=O)(=O)C(F)(F)F)c4)cc3)CC2)C1 [Navitoclax] + N=C(N)NC(=N)NCCc1ccccc1 [Phenformin] (partner 250 µM)
0.303

Source: the supplement of paper PMC10307832
